# Protocol summary: Aqueous solubility in 0.01 N Hcl
# Assay type: physicochemical
Property measured: solubility

{"columns": ["Smiles input", "Observed"],
 "data": [
  ["COc1cc2nccc(Oc3ccc4c(C(=O)NC5CC5)cccc4c3)c2cc1OC", "> 200 µg/mL"],
  ["COc1cc2nccc(Oc3ccc4c(C(N)=O)cccc4c3)c2cc1OC", "> 200 µg/mL"]
]}

(Q) What solubility value was documented for this compound, COCCNC(=O)c1cccc2cc(Oc3ccnc4cc(OC)c(OC)cc34)ccc12 ?
(A) > 200 µg/mL

(Q) Value lookup for solubility; key = COc1cc2nccc(Oc3ccc4c(C(=O)Nc5ccc(Cl)cc5)cccc4c3)c2cc1OC
(A) 1.1 µg/mL

---

# Protocol summary: Protein binding in mouse plasma
# Type: ADME, cell-free
# Condition description: read-out: PPB (converted)
Property measured: fraction unbound
Lab note: jot the number down without any unit.

(Q) Recorded fraction unbound of COc1cc2nccc(Oc3ccc4c(C(N)=O)cccc4c3)c2cc1OC , please.
(A) 0.027

---

# Protocol summary: Half life in cynomolgus monkey at 2 mg/kg, po
# Type: ADME, organism-based, Macaca fascicularis
# Set-up: dose 2 mg/kg, route oral
# Condition description: in vivo
Property measured: half-life (h)
The response must be a number in h with no trailing unit.

(Q) What measured half-life goes with COc1cc2nccc(Oc3ccc4c(C(N)=O)cccc4c3)c2cc1OC ?
(A) 13

---

Form field: AUC (one value per entry).
# Protocol summary: AUC in VEGF-soaked disk implanted in Sprague-Dawley rat
# Type: ADME, organism-based
# Condition description: plasma
Give the number first and the unit second.

(Q) Entry COc1cc2nccc(Oc3ccc4c(C(N)=O)cccc4c3)c2cc1OC : reported AUC = ?
(A) 0.48 µM·h

(Q) Looking for the measured AUC of COCCNC(=O)c1cccc2cc(Oc3ccnc4cc(OC)c(OC)cc34)ccc12 , can you help?
(A) 0.52 µM·h

(Q) Please give the measured AUC for this molecule: COc1cc2nccc(Oc3ccc4c(C(=O)NC5CC5)cccc4c3)c2cc1OC
(A) 0.32 µM·h

---

# Protocol summary: Intrinsic clearance in human liver microsomes at 1 uM
# Assay type: ADME, Microsome
# Condition description: read-out: Stability
Property measured: microsomal CLint at 1 µM (µL/min/mg)
Write the value in µL/min/mg as a bare number.

Here is how some compounds turned out for microsomal CLint at 1 µM.
{"columns": ["Smiles input", "Observed"],
 "data": [
  ["COCCNC(=O)c1cccc2cc(Oc3ccnc4cc(OC)c(C(N)=O)cc34)ccc12", 4],
  ["COc1cc2nccc(Oc3ccc4c(C(N)=O)cccc4c3)c2cc1OC", 7],
  ["COCCNC(=O)c1cccc2cc(Oc3ccnc4cc(OC)c(OC)cc34)ccc12", 32]
]}

(Q) Look at this compound and give its reported microsomal CLint at 1 µM. COc1cc2nccc(Oc3ccc4c(C(=O)NC5CC5)cccc4c3)c2cc1OC
(A) 31

(Q) Given the entry COc1cc2nccc(Oc3ccc4c(C(=O)NC5CC5)cccc4c3)c2cc1C(N)=O , report its measured microsomal CLint at 1 µM.
(A) 12

---

# Protocol summary: Mean residence time in cynomolgus monkey at 0.5 mg/kg, iv
# Type: ADME, organism-based, Macaca fascicularis
# Set-up: dose 0.5 mg/kg, route intravenous
# Condition description: in vivo
Property measured: MRT (h)
Output spec: scalar in h, unitless text.

(Q) # input molecule: COc1cc2nccc(Oc3ccc4c(C(N)=O)cccc4c3)c2cc1OC ; wanted: its MRT
(A) 8.6

---

# Tested target: Vascular endothelial growth factor receptor 2 (Homo sapiens)
# Sequence (P35968 whole entry): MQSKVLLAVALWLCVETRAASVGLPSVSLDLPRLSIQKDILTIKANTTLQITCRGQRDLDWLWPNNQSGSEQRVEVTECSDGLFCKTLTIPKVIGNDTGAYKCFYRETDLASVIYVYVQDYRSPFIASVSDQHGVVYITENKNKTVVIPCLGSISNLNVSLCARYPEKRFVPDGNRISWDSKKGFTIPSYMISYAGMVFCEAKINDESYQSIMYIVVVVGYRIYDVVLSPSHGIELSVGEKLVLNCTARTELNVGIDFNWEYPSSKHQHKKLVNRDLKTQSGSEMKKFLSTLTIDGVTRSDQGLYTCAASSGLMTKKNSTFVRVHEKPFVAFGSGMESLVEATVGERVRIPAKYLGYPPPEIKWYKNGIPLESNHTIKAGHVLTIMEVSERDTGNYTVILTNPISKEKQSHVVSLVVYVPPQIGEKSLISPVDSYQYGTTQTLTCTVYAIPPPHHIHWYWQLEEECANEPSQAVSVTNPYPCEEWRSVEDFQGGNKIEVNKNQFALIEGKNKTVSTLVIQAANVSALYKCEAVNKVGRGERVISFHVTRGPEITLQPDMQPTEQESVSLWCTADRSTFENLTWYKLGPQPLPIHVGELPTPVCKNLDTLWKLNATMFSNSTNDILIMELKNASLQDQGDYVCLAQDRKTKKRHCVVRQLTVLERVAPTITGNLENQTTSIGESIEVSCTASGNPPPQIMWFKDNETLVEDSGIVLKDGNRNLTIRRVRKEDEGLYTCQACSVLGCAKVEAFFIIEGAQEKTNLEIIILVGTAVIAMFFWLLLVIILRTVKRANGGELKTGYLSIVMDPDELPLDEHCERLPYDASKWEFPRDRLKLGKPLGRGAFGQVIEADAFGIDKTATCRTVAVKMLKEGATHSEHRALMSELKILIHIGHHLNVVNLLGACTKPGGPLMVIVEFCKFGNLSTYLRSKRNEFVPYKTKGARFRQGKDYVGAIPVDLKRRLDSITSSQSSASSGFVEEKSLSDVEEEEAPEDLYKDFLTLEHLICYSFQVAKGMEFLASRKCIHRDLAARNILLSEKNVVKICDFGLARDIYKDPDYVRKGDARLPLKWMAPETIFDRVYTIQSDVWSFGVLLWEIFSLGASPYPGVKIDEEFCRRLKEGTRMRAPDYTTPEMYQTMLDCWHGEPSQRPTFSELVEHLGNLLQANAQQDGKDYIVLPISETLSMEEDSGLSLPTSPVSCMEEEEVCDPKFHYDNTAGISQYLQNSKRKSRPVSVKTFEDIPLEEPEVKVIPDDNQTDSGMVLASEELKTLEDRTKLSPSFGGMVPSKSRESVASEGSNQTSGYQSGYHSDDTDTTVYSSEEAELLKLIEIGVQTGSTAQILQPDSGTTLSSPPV
pIC50: −log10 of the molar value.
Could you label it true if measured pIC50 is 8 or higher, and false otherwise?

# example entries with known answers
{"columns": ["Smiles input", "Tested target", "Qualitative label"],
 "data": [
  ["COc1cc2nccc(Oc3ccc4c(C(N)=O)cccc4c3)c2cc1OC", "Vascular endothelial growth factor receptor 2 (Homo sapiens)", "true"],
  ["COCCNC(=O)c1cccc2cc(Oc3ccnc4cc(OC)c(C(N)=O)cc34)ccc12", "Vascular endothelial growth factor receptor 2 (Homo sapiens)", "false"]
]}

API: the following record is the query input.
(Q) Decide: is the reported value of pIC50 for COc1cc2nccc(Oc3ccc4c(C(=O)NC(C)(C)C)cccc4c3)c2cc1OC equal to or greater than 8?
(A) false

---

# Protocol summary: Mean residence time in mouse at 2 mg/kg, iv
# Assay type: ADME, organism-based
# Set-up: dose 2 mg/kg, route intravenous
# Condition description: in vivo
Property measured: MRT (h)
Please state the figure in h; there is no need to write the unit.

(Q) Entry COc1cc2nccc(Oc3ccc4c(C(N)=O)cccc4c3)c2cc1OC has what MRT?
(A) 2.3

---

# Protocol summary: Half life in Sprague-Dawley rat at 1 mg/kg, iv
# Type: ADME, organism-based
# Design: dose 1 mg/kg, route intravenous
# Condition description: in vivo
Property measured: half-life (h)
Just the number in h, nothing appended.

{"columns": ["Smiles input", "Property measured", "Observed"],
 "data": [
  ["COc1cc2nccc(Oc3ccc4c(C(=O)NC5CC5)cccc4c3)c2cc1OC", "half-life", 8.4]
]}

Okay, next one:
(Q) half-life lookup needed for COCCNC(=O)c1cccc2cc(Oc3ccnc4cc(OC)c(OC)cc34)ccc12 , thanks.
(A) 1.6

---

# Protocol summary: Clearance in Sprague-Dawley rat at 1 mg/kg, iv
# Assay type: ADME, organism-based
# Parameters: dose 1 mg/kg, route intravenous
# Condition description: in vivo
In this section, each of the compounds is paired with its reported clearance.
The response must be a number in mL/min/kg with no trailing unit.

{"columns": ["Smiles input", "clearance / mL/min/kg"],
 "data": [
  ["COc1cc2nccc(Oc3ccc4c(C(=O)NC5CC5)cccc4c3)c2cc1OC", 2.18]
]}

(Q) What value of measured clearance is listed for COCCNC(=O)c1cccc2cc(Oc3ccnc4cc(OC)c(OC)cc34)ccc12 ?
(A) 8.87

---

# Protocol summary: Cmax in dog at 0.5 mg/kg, po
# Type: ADME, organism-based, Canis lupus familiaris
# Parameters: dose 0.5 mg/kg, route oral
# Condition description: in vivo
Property measured: Cmax (ng/mL)
Please state the figure in ng/mL; there is no need to write the unit.

(Q) Would you kindly share the measured Cmax for COc1cc2nccc(Oc3ccc4c(C(N)=O)cccc4c3)c2cc1OC ?
(A) 464

---

# Protocol summary: AUC (0 to infinity) in Sprague-Dawley rat at 2 mg/kg, po
# Assay type: ADME, organism-based
# Parameters: time infinity, dose 2 mg/kg, route oral
# Condition description: plasma
Property measured: AUC(0-inf) (ng·h/mL)
// units = ng·h/mL; emit number, no label

For orientation, consider the following solved cases.
{"columns": ["Smiles input", "Property measured", "Observed"],
 "data": [
  ["COc1cc2nccc(Oc3ccc4c(C(N)=O)cccc4c3)c2cc1OC", "AUC(0-inf)", 8450],
  ["COCCNC(=O)c1cccc2cc(Oc3ccnc4cc(OC)c(C(N)=O)cc34)ccc12", "AUC(0-inf)", 164],
  ["COc1cc2nccc(Oc3ccc4c(C(=O)NC5CC5)cccc4c3)c2cc1C(N)=O", "AUC(0-inf)", 900]
]}

# input for lookup
(Q) Form field: reported AUC(0-inf) of COCCNC(=O)c1cccc2cc(Oc3ccnc4cc(OC)c(OC)cc34)ccc12
(A) 3770

---

The compounds listed here are annotated with their IC50.
# Tested target: Angiopoietin-1 receptor (Homo sapiens)
# Sequence (Q02763 whole entry): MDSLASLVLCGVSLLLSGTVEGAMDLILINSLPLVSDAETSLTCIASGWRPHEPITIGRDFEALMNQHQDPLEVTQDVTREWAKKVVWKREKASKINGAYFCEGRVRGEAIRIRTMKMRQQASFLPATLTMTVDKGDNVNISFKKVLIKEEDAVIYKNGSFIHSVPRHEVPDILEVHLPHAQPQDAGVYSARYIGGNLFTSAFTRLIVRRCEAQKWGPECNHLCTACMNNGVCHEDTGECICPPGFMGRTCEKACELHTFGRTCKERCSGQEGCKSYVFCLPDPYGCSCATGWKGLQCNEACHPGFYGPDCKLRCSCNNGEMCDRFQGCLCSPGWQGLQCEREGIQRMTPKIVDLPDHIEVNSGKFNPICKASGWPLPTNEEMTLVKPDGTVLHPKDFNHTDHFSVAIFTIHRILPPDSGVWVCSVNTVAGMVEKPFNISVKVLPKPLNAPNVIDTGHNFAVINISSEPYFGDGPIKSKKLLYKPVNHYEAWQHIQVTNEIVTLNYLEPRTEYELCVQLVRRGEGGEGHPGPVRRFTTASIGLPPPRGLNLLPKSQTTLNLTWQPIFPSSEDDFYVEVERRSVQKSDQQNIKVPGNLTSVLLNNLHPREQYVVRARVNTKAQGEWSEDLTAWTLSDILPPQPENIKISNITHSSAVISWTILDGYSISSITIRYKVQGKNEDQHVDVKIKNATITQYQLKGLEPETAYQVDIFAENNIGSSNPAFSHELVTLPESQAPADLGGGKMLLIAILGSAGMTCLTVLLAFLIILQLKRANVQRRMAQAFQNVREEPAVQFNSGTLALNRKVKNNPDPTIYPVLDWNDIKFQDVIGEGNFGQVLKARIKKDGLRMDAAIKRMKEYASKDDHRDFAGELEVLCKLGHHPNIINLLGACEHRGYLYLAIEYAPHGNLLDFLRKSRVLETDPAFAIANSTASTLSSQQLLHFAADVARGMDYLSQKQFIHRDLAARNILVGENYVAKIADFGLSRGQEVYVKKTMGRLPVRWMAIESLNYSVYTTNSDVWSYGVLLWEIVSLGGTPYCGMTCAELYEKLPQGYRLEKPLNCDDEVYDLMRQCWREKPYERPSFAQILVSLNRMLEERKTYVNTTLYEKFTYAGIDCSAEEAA
Give a bare numeral; the unit µM is implied.

// known answers, use as guide
{"columns": ["Smiles input", "Uom", "Observed"],
 "data": [
  ["COc1cc2nccc(Oc3ccc4c(C(=O)NC5CC5)cccc4c3)c2cc1OC", "µM", 25],
  ["COc1cc2nccc(Oc3ccc4c(C(N)=O)cccc4c3)c2cc1OC", "µM", 25],
  ["COCCCNC(=O)c1cccc2cc(Oc3ccnc4cc(OC)c(OC)cc34)ccc12", "µM", 8.3],
  ["COc1cc2ncnc(Oc3ccc4c(C(=O)NC5CC5)cccc4c3)c2cc1OC", "µM", 7.4]
]}

From here, focus on the item given below.
(Q) I have this compound here, COCCNC(=O)c1cccc2cc(Oc3ccnc4cc(OC)c(OC)cc34)ccc12 , and I need its recorded IC50.
(A) 25

---

Endpoint: pIC50. System: Hepatocyte growth factor receptor (Homo sapiens, UniProt P08581). Items follow.
Sequence (P08581 whole entry): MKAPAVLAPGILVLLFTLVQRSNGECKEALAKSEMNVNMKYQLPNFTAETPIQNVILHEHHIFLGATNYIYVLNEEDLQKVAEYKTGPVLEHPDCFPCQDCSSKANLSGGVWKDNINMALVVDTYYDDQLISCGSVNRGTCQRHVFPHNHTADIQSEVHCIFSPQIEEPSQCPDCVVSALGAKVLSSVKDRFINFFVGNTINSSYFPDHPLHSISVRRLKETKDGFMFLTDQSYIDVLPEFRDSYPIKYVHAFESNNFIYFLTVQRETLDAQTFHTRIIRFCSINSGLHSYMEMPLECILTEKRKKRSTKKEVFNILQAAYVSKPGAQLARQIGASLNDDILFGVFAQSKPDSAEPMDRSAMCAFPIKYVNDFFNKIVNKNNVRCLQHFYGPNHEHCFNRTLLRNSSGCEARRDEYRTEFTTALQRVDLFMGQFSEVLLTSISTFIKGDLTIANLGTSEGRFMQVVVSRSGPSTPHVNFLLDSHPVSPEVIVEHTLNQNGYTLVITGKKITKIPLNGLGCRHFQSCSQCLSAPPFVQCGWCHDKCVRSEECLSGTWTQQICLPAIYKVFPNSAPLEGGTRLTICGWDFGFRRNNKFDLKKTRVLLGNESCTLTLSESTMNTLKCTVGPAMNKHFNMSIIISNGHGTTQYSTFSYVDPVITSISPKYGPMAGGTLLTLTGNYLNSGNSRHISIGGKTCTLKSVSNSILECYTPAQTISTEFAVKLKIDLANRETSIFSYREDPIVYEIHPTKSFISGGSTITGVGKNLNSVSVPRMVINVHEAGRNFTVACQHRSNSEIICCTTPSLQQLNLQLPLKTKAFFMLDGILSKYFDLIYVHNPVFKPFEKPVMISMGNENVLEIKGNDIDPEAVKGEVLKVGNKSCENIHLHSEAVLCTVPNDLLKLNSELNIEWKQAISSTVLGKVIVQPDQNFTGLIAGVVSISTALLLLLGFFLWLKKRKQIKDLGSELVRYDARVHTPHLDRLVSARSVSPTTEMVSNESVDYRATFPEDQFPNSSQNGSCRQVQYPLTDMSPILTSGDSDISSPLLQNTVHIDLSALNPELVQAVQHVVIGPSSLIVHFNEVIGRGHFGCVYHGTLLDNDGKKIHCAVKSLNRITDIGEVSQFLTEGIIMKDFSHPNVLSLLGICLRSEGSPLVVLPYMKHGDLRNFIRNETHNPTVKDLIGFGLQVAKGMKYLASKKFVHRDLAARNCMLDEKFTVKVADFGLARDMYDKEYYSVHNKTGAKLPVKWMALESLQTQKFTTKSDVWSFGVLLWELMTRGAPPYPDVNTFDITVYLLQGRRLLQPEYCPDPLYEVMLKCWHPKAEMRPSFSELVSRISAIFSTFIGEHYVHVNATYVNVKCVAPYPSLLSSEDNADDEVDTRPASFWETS
Answer as the number alone; pIC50 is minus log10 of concentration in mol/L.

Please review the entries below; each comes with its answer.
{"columns": ["Smiles input", "pIC50"],
 "data": [
  ["COCCNC(=O)c1cccc2cc(Oc3ccnc4cc(OC)c(OC)cc34)ccc12", 4.70],
  ["COc1cc2nccc(Oc3ccc4c(C(=O)NC(C)C)cccc4c3)c2cc1OC", 4.70],
  ["COc1cc2nccc(Oc3ccc4c(C(=O)NCC(F)(F)F)cccc4c3)c2cc1OC", 4.70],
  ["COc1cc2nccc(Oc3ccc4c(C(N)=O)cccc4c3)c2cc1OC", 5.16]
]}

(Q) Quick check: pIC50 on Hepatocyte growth factor receptor (Homo sapiens, UniProt P08581), item COc1cc2nccc(Oc3ccc4c(C(=O)NCC5CC5)cccc4c3)c2cc1OC ?
(A) 5.28
